FYI, the data here is from patent US9555038B2.

system: HCV replicon 1AQ30D; experiment: Cell-based HCV Replicon Assay B, replicon 1AQ30D; settings: Hepatitis C virus, read-out: 1A Q30D IC50 (nM), replicon 1AQ30D
OBSERVED_PROPERTY: IC50 (nM)
Form entry: value (nM) — number only.

- COMPOUND: "COC(=O)N[C@H](C(=O)N1CCC[C@H]1c1ncc(-c2cc(F)c3c(c2)OC(c2cnc(C4CC4)s2)n2c-3c(F)c3cc(-c4cnc([C@@H]5CCCN5C(=O)[C@@H](NC(=O)OC)C(C)C)[nH]4)ccc32)[nH]1)C(C)C (single isomer, unassigned)"
  UNIT_OF_MEASURE: "nM"
  IC50: 0.494
- COMPOUND: "COC(=O)N[C@H](C(=O)N1CCC[C@H]1c1nc(-c2cc(F)c3c(c2)OC(c2cnc(-c4cnccn4)s2)n2c-3cc3cc(-c4cnc([C@@H]5CCCN5C(=O)[C@@H](NC(=O)OC)C(C)C)[nH]4)ccc32)c[nH]1)C(C)C (some centres unmarked)"
  UNIT_OF_MEASURE: "nM"
  IC50: 0.058
- COMPOUND: "COC(=O)NC(C(=O)N1[C@@H]2C[C@@H]2C[C@H]1c1ncc(-c2ccc3c(c2)cc2n3C(c3cnc(C4(C)CCCC4)s3)Oc3cc(-c4cnc([C@@H]5CCCN5C(=O)[C@@H](NC(=O)OC)C(C)C)[nH]4)cc(F)c3-2)[nH]1)C1CCOC(C)(C)C1 (single isomer, unassigned)"
  UNIT_OF_MEASURE: "nM"
  IC50: 0.016
- COMPOUND: "COC(=O)N[C@H](C(=O)N1CCC[C@H]1c1ncc(-c2cc(F)c3c(c2)OC(c2cnc(C(C)(C)C)s2)n2c-3cc3cc(-c4cnc([C@@H]5CCCN5C(=O)[C@@H](NC(=O)OC)C(C)C)[nH]4)ccc32)[nH]1)C(C)C (single isomer, unassigned) [Compound 302]"
  UNIT_OF_MEASURE: "nM"
  IC50: 0.168
- COMPOUND: "COC(=O)N[C@H](C(=O)N1CCC[C@H]1c1ncc(-c2cc(F)c3c(c2)OC(c2cnc(Nc4ccc(F)cc4)s2)n2c-3cc3cc(-c4cnc([C@@H]5CCCN5C(=O)[C@@H](NC(=O)OC)C(C)C)[nH]4)ccc32)[nH]1)C(C)C (single isomer, unassigned)"
  UNIT_OF_MEASURE: "nM"
  IC50: 0.267
- COMPOUND: "COC(=O)N[C@H](C(=O)N1CCC[C@H]1c1ncc(-c2cc(C)c3c(c2)OC(c2cnc(C4CC4)s2)n2c-3cc3cc(-c4cnc([C@@H]5C[C@H]6C[C@H]6N5C(=O)[C@@H](NC(=O)OC)C(C)C)[nH]4)ccc32)[nH]1)C(C)C (single isomer, unassigned)"
  UNIT_OF_MEASURE: "nM"
  IC50: 0.654

[Q] Which IC50 value belongs to COC(=O)N[C@H](C(=O)N1CCC[C@H]1c1ncc(-c2cc(F)c3c(c2)OC(c2cnc(-c4cnccn4)s2)n2c-3cc3cc(-c4cnc([C@@H]5CCCN5C(=O)[C@@H](NC(=O)OC)C(C)C)[nH]4)ccc32)[nH]1)C(C)C (mixture of isomers) ?
[A] 0.444

[Q] Which IC50 value belongs to COC(=O)NC(C(=O)N1[C@@H]2C[C@@H]2C[C@H]1c1ncc(-c2ccc3c(c2)c(F)c2n3C(c3cnc(C4CC4)s3)Oc3cc(-c4cnc([C@@H]5CCCN5C(=O)[C@@H](NC(=O)OC)C(C)C)[nH]4)cc(F)c3-2)[nH]1)C1CCOC(C)(C)C1 (single isomer, unassigned) ?
[A] 0.036

[Q] Which IC50 value belongs to CCCc1ncc(C2Oc3cc(-c4cnc([C@@H]5CCCN5C(=O)[C@@H](NC(=O)OC)C(C)C)[nH]4)cc(C)c3-c3cc4cc(-c5cnc([C@@H]6C[C@H]7C[C@H]7N6C(=O)[C@@H](NC(=O)OC)C(C)C)[nH]5)ccc4n32)s1 (single isomer, unassigned) ?
[A] 0.83

[Q] Which IC50 value belongs to COC(=O)NC(C(=O)N1CCC[C@H]1c1ncc(-c2ccc3c(c2)cc2n3C(c3cnc(C4CCC4)s3)Oc3cc(-c4cnc([C@@H]5CCCN5C(=O)[C@@H](NC(=O)OC)C(C)C)[nH]4)cc(C)c3-2)[nH]1)C1CCOC(C)(C)C1 (single isomer, unassigned) ?
[A] 0.39

[Q] Which IC50 value belongs to COC(=O)N[C@H](C(=O)N1CCC[C@H]1c1ncc(-c2cc(C)c3c(c2)OC(c2cnc(C4CC4)s2)n2c-3cc3cc(-c4cnc([C@@H]5CCCN5C(=O)[C@@H](NC(=O)OC)C(C)C)[nH]4)ccc32)[nH]1)C(C)C (single isomer, unassigned) ?
[A] 0.961

* * *

test system: HCV replicon 1AQ30D; test: Cell-based HCV Replicon Assay B, replicon 1AQ30D; conditions: Hepatitis C virus, read-out: 1A Q30D IC50 (nM), replicon 1AQ30D
A collection of molecules and their measured log10(IC50)
Please be aware that the numbers have been log10-transformed from IC50 in nM.

Here are 10 molecules together with their reported answers.
- MOLECULE: "CCC(CC)c1ncc(C2Oc3cc(-c4cnc([C@@H]5CCCN5C(=O)[C@@H](NC(=O)OC)C(C)C)[nH]4)cc(F)c3-c3cc4cc(-c5cnc([C@@H]6CCCN6C(=O)[C@@H](NC(=O)OC)C(C)C)[nH]5)ccc4n32)s1 (mixture of isomers)"
  SYSTEM_TESTED: "HCV replicon 1AQ30D"
  log10(IC50): -0.74
- MOLECULE: "COC(=O)N[C@H](C(=O)N1CCC[C@H]1c1ncc(-c2cc(F)c3c(c2)OC(c2cnc(C4(C)CCCC4)s2)n2c-3cc3cc(-c4cnc([C@@H]5C[C@H]6C[C@H]6N5C(=O)[C@@H](NC(=O)OC)C(C)C)[nH]4)ccc32)[nH]1)C(C)C (single isomer, unassigned)"
  SYSTEM_TESTED: "HCV replicon 1AQ30D"
  log10(IC50): -1.33
- MOLECULE: "COC(=O)NC(C(=O)N1[C@@H]2C[C@@H]2C[C@H]1c1ncc(-c2ccc3c(c2)cc2n3C(c3cnc(C4CC4)s3)Oc3cc(-c4cnc([C@@H]5CC6CC6N5C(=O)[C@@H](NC(=O)OC)C(C)C)[nH]4)cc(F)c3-2)[nH]1)C1CCOC(C)(C)C1 (single isomer, unassigned)"
  SYSTEM_TESTED: "HCV replicon 1AQ30D"
  log10(IC50): -1.57
- MOLECULE: "COC(=O)NC(C(=O)N1CCC[C@H]1c1ncc(-c2ccc3c(c2)c(F)c2n3C(c3cnc(C4CC4)s3)Oc3cc(-c4cnc([C@@H]5CCCN5C(=O)[C@@H](NC(=O)OC)C(C)C)[nH]4)cc(F)c3-2)[nH]1)C1CCOC(C)(C)C1 (single isomer, unassigned)"
  SYSTEM_TESTED: "HCV replicon 1AQ30D"
  log10(IC50): -1.00
- MOLECULE: "COC(=O)N[C@H](C(=O)N1CCC[C@H]1c1ncc(-c2cc(F)c3c(c2)OC(c2cnns2)n2c-3cc3cc(-c4cnc([C@@H]5CCCN5C(=O)[C@@H](NC(=O)OC)C(C)C)[nH]4)ccc32)[nH]1)C(C)C (single isomer, unassigned)"
  SYSTEM_TESTED: "HCV replicon 1AQ30D"
  log10(IC50): 0.02
- MOLECULE: "COC(=O)N[C@H](C(=O)N1CCC[C@H]1c1ncc(-c2cc(F)c3c(c2)OC(c2cncs2)n2c-3cc3cc(-c4cnc([C@@H]5CCCN5C(=O)[C@@H](NC(=O)OC)C(C)C)[nH]4)ccc32)[nH]1)C(C)C (single isomer, unassigned)"
  SYSTEM_TESTED: "HCV replicon 1AQ30D"
  log10(IC50): 1.58
- MOLECULE: "COC(=O)N[C@H](C(=O)N1CCC[C@H]1c1ncc(-c2cc(F)c3c(c2)OC(c2cnc(C4CC4)s2)n2c-3cc3cc(-c4cnc([C@@H]5CCCN5C(=O)[C@@H](NC(=O)OC)C(C)C)[nH]4)ccc32)[nH]1)C(C)C (single isomer, unassigned)"
  SYSTEM_TESTED: "HCV replicon 1AQ30D"
  log10(IC50): -1.01
- MOLECULE: "COC(=O)NC(C(=O)N1CCC[C@H]1c1ncc(-c2ccc3c(c2)cc2n3C(c3ncc(C4CC4)s3)Oc3cc(-c4cnc([C@@H]5CCCN5C(=O)[C@@H](NC(=O)OC)C(C)C)[nH]4)cc(F)c3-2)[nH]1)C1C[C@@H](C)O[C@@H](C)C1 (single isomer, unassigned)"
  SYSTEM_TESTED: "HCV replicon 1AQ30D"
  log10(IC50): -0.82
- MOLECULE: "COC(=O)NC(C(=O)N1CCC[C@H]1c1ncc(-c2ccc3c(c2)cc2n3C(c3cnc(CC(C)(C)C)s3)Oc3cc(-c4cnc([C@@H]5CCCN5C(=O)[C@@H](NC(=O)OC)C(C)C)[nH]4)cc(F)c3-2)[nH]1)C1CCOC(C)(C)C1 (some centres unmarked)"
  SYSTEM_TESTED: "HCV replicon 1AQ30D"
  log10(IC50): -1.55
- MOLECULE: "COC(=O)N[C@H](C(=O)N1CCC[C@H]1c1ncc(-c2cc(F)c3c(c2)OC(c2cnc(C4CC4C)s2)n2c-3cc3cc(-c4cnc([C@@H]5CCCN5C(=O)[C@@H](NC(=O)OC)C(C)C)[nH]4)ccc32)[nH]1)C(C)C (mixture of isomers)"
  SYSTEM_TESTED: "HCV replicon 1AQ30D"
  log10(IC50): -0.52

[Q] Which log10(IC50) value belongs to COC(=O)N[C@H](C(=O)N1CCC[C@H]1c1ncc(-c2cc(F)c3c(c2)OC(c2cnc(-c4ccc(OC)cc4)s2)n2c-3cc3cc(-c4cnc([C@@H]5CCCN5C(=O)[C@@H](NC(=O)OC)C(C)C)[nH]4)ccc32)[nH]1)C(C)C (single isomer, unassigned) ?
[A] -1.14

[Q] Which log10(IC50) value belongs to COC(=O)NC(C(=O)N1[C@@H]2C[C@@H]2C[C@H]1c1ncc(-c2ccc3c(c2)cc2n3C(c3cnc(C4CC4)s3)Oc3cc(-c4cnc([C@@H]5CCCN5C(=O)[C@@H](NC(=O)OC)C(C)C)[nH]4)cc(C)c3-2)[nH]1)C1C[C@@H](C)O[C@@H](C)C1 (single isomer, unassigned) ?
[A] -0.62

[Q] Which log10(IC50) value belongs to COC(=O)N[C@H](C(=O)N1CCC[C@H]1c1ncc(-c2cc(F)c3c(c2)OC(c2cnc(C(F)F)s2)n2c-3cc3cc(-c4cnc([C@@H]5CCCN5C(=O)[C@@H](NC(=O)OC)C(C)C)[nH]4)ccc32)[nH]1)C(C)C (single isomer, unassigned) ?
[A] -2.00

[Q] Which log10(IC50) value belongs to COC(=O)N[C@H](C(=O)N1CCC[C@H]1c1ncc(-c2cc(C)c3c(c2)OC(c2cnc(C4CC4)s2)n2c-3cc3cc(-c4cnc([C@@H]5C[C@H]6C[C@H]6N5C(=O)[C@@H](NC(=O)OC)C(C)(C)F)[nH]4)ccc32)[nH]1)C(C)C (single isomer, unassigned) ?
[A] -0.57
